- Test system: M109
- procedure details: Tested for cytotoxicity in murine lung carcinoma (M109)
- Assay type: functional, cell-based
- condition context: Mus musculus
pIC50: −log10 of the molar value.
Overview of reported pIC50 across a group of compounds:

Item under review: CC(=O)SCCOP(=O)(OCCS)OC[C@H]1C=C[C@@H](n2cc(F)c(N)nc2=O)O1 (some centres not stated) . Reported pIC50? < 4.15

Here is the next item to consider.
Item under review: CC(=O)SCCOP(=O)(OCCSC(C)=O)OC[C@H]1CC[C@@H](n2cnc3c(N)ncnc32)O1 . Reported pIC50? < 4.15

---

- Test system: Colon 26
- procedure details: Tested for cytotoxicity in murine colon cancer (C26)
- Assay type: functional, cell-based
- condition context: Mus musculus
Overview of reported IC50 across a group of compounds:

Item under review: CC(=O)SCCOP(=O)(OCCS)OC[C@H]1C=C[C@@H](n2cc(F)c(N)nc2=O)O1 (some centres not stated) . Reported IC50? > 70 µM

Here is the next item to consider.
Item under review: CC(=O)SCCOP(=O)(OCCSC(C)=O)OC[C@H]1CC[C@@H](n2cnc3c(N)ncnc32)O1 . Reported IC50? > 70 µM
